test system: CAKI-1; assay: NCI tumour cell line growth inhibition, 48 h
The source made the active and inactive calls. No stated cut-off is given here; in the data, active = GI50 up to about 1.1 µM and inactive = higher.
test_readout: GI50

1) Cn1c(=O)[nH]c2nncnc2c1=O: 11 µM (inactive)
2) CSc1s[s+]c(SC)c1[O-]: 20.7 µM (inactive)
3) CC1C2CCC3C(O)C2(CC(O)C2(O)C1CC(O)C2(C)C)CC3(C)O (centres undefined): > 100 µM (inactive)
4) CN(C)CCCN=C(N)N: > 100 µM (inactive)

====

test system: RPMI-8226; test: NCI tumour cell line growth inhibition, 48 h
Activity calls are given as the source filed them. Rule as the data show it: active = GI50 up to about 1.1 µM and inactive = higher.
Labels: active, inactive

1) CC(=O)c1cccc(N2COC(C)(C)c3nc4ccccc4n3C2)c1: inactive
2) O=C1OC(OCC#CCOC2OC(=O)C(Cl)=C2Cl)C(Cl)=C1Cl (configuration not stated): inactive
3) CC(=O)O[C@H]1CC[C@@]2(C)C(CC[C@]3(C)C2CC[C@]2(C)Oc4c(C)cc(O)cc4C[C@@H]23)C1(C)C (some centres not stated): inactive
4) c1ccc(C2(c3cc4ccccc4[nH]3)OCCO2)cc1: inactive
5) O=C(Nc1cccc2nsnc12)c1cc2c(cc1Cl)Sc1nccn1S2(=O)=O: inactive
6) Cc1nn(C(=O)Cc2ccccc2)c2c1C(c1ccccc1[N+](=O)[O-])SC(=N)N2 (configuration not stated): inactive
7) C[C@H](NC(=O)n1c2ccccc2c2ccccc21)C(=O)O: inactive
8) NC(CCP(=O)(O)CCC1C=CC=CC1)C(=O)O (configuration not stated): inactive
9) COC(=O)[C@H](Cc1ccc(OC(C)(C)C)cc1)N[C@H](C)C(=O)N[C@@H](Cc1ccccc1)C(=O)OCc1ccccc1: inactive
10) CC(=O)C1C(c2ccc(N(C)C)cc2)c2cc3c(cc2OC1(C)O)OCO3 (configuration not stated): inactive
11) COC(=O)C1=C(c2ccc3c(c2)OCO3)O[C@H](c2ccc3c(c2)OCO3)[C@H]1COC(C)=O: inactive
12) CCSc1nnc2c(-c3ccccc3)n[nH]c2n1: inactive
13) CSc1c(C(=O)Nc2ccc(C)cc2)c(N)n(N)c(=O)c1C#N: inactive
14) O=C(Cn1c2c(c3ccccc31)CCCC2)NC1CCCCC1: inactive
15) CC(=O)OCC1OC(O[C@@H]2c3c(O)c4c(c(O)c3C3=C(NN(c5ccc([N+](=O)[O-])cc5[N+](=O)[O-])[Se]3=O)[C@@]2(C)O)C(=O)c2ccccc2C4=O)C(OC(C)=O)C(OC(C)=O)C1OC(C)=O (some centres not stated): active
16) COc1cc(OC)cc(-c2cc(O)c3cc4c(cc3n2)OCO4)c1: active
17) COc1ccc(-n2cnc3c(N)nc(N)nc32)cc1: inactive
18) CN1CCN2c3ccccc3CC(C#N)(C#N)C2C1 (configuration not stated): inactive
19) C=C(CN(C)C)C(=O)c1ccccc1: inactive
20) CCCSC1=N/C(=C\c2ccco2)C(=O)N1: inactive
21) CC1=C(O)C(O)=C(C2=C(O)C(O)=C(C)C(=O)C2=O)C(=O)C1=O: inactive
22) O=C(N/C(=C\c1ccccc1O)c1nc2ccccc2[nH]1)c1ccccc1: inactive

====

system: A498; experiment: NCI tumour cell line growth inhibition, 48 h
The source made the active and inactive calls. Cut-off read from the data, not from the text of the source: active = GI50 up to about 1.1 µM and inactive = higher.
Labels: active, inactive

1. Cc1nn(C(=O)Cc2ccccc2)c2c1C(c1ccccc1[N+](=O)[O-])SC(=N)N2 (stereo not drawn): inactive
2. CN1CCc2c(sc3ncn(C)c(=N)c23)C1: inactive
3. CCOC(=O)C(=O)Nc1ccccc1C(F)(F)F: inactive
4. O=S(O)CCCSSc1ccccc1: inactive
5. c1ccc(/C(=N\Nc2nc3ccccc3s2)c2ccccn2)cc1: inactive
6. CN1CCN2c3ccccc3CC(C#N)(C#N)C2C1 (stereo not drawn): inactive
7. O=C(Nc1ccc(Cl)cc1Cl)OC(Cn1cncn1)c1ccc(Cl)cc1Cl (stereo not drawn): inactive
8. CCOc1cn(C2CC(O)C(CO)O2)c(=O)[nH]c1=O (stereo not drawn): inactive
9. O=C(N/C(=C\c1ccccc1O)c1nc2ccccc2[nH]1)c1ccccc1: inactive
10. O=Cc1ccc(Oc2c3ccccc3nc3ccccc23)cc1: active
11. O=C([O-])C(O)C(O)C(=O)O.[K+] (stereo not drawn) [POTASSIUM HYDROGENTARTRATE]: inactive
12. Cc1ccc(S(=O)(=O)N2CCC(C(=O)O)(c3ccccc3)CC2)cc1: inactive
13. CC(C)[C@@H](COC(C)(C)C)/N=C/N1CCc2c([nH]c3ccccc23)C1: inactive
14. COc1ccc(NC/C=C/C(=C/COC(C)=O)OC(C)=O)cc1: inactive
15. N#CCc1ccc(/C(C#N)=C2/OC(=N)C(c3ccc(CC#N)cc3)C2=O)cc1 (stereo not drawn): inactive
16. O=C1C(Br)=C[C@H]2C3C=CC(Br)(C3=O)[C@@H]12 (stereo partly drawn): inactive
17. CC1(C)OCC(C2OC(On3nnc4ccc(Cl)cc43)C3OC(C)(C)OC23)O1 (stereo not drawn): inactive
18. Oc1ccc(/C=C/c2ccc3cccc(O)c3n2)cc1O: inactive
19. Cn1c2c(c3ccccc31)CCN(CCCCN1CCc3c(n(C)c4ccccc34)C1=O)C2: inactive
20. CN(C)CCCN=C(N)N: inactive
21. CC(C(=O)c1ccccc1)C(c1ccccc1)N1CCOCC1 (stereo not drawn): inactive
22. CC1=Nc2ccccc2OC(C)=C1/N=N/c1ccc2[nH]c(C)nc2c1: inactive
23. CO[C@@H]1[C@H](OC(=O)NC(=O)CCl)CC[C@]2(CO2)[C@H]1[C@@]1(C)O[C@@H]1CC=C(C)C [O-CHLOROACETYLCARBAMOYLFUMAGILLOL]: inactive

====

test system: ACHN; assay: NCI tumour cell line growth inhibition, 48 h
Activity calls are given as the source filed them. Rule as the data show it: active = GI50 up to about 1.1 µM and inactive = higher.
Labels: YES = active, NO = inactive

1. O=C(Nc1ccccc1F)c1c(O)nc2sccn2c1=O: NO
2. Cc1cc(NCCCCCCNc2cc(C)nc3ccc(Cl)cc23)c2cc(Cl)ccc2n1: NO
3. O=S(O)CCCSSc1ccccc1: NO
4. O=C1C=C(Nc2ccc(Br)cc2)c2ccccc2C1=O: NO
5. Cc1cnc2sn(-c3ccc(Br)cc3)c(=O)c2c1: NO
6. CC1(C)OCC(C2OC(On3nnc4ccc(Cl)cc43)C3OC(C)(C)OC23)O1 (stereo unspecified): NO
7. CC(=O)OCC1OC(O[C@@H]2c3c(O)c4c(c(O)c3C3=C(NN(c5ccc([N+](=O)[O-])cc5[N+](=O)[O-])[Se]3=O)[C@@]2(C)O)C(=O)c2ccccc2C4=O)C(OC(C)=O)C(OC(C)=O)C1OC(C)=O (stereo partly specified): YES
8. O=C(O)[C@@H](NS(=O)(=O)c1ccc([N+](=O)[O-])cc1)c1ccccc1: NO
9. CCCc1c(C(=O)OCC)[nH]c(C(=O)CCC(=O)c2[nH]c(C(=O)OCC)c(CCC)c2C(=O)OCC)c1C(=O)OCC: NO
10. CCSc1nnc2c(-c3ccccc3)n[nH]c2n1: NO
11. O=c1c(C(c2ccc(O)cc2)c2c(O)oc3ccccc3c2=O)c(O)oc2ccccc12: NO
12. CCOc1ccc(NC(=O)C2=C(C)NC(C)=C(C(=O)Nc3ccc(OCC)cc3)C2c2ccccc2)cc1: NO
13. Nc1nc2c(C(=O)O)c3ccc([N+](=O)[O-])cc3c(=O)n2c2ccccc12: NO
14. Cc1ccc(S(=O)(=O)SCc2ccccc2CSS(=O)(=O)c2ccc(C)cc2)cc1: NO
15. COc1ccc2c(c1)C=C(C(C)(C)C)NS2(=O)=O: NO
16. CCCn1c(SCC)c2cc3cc4ccccc4cc3cc2c1-c1nc(F)nc(F)n1: NO
17. COc1ccc(NC/C=C/C(=C/COC(C)=O)OC(C)=O)cc1: NO
18. O=C(O)COc1ccc2c3c1C(=O)CCC3CO2 (stereo unspecified): NO
19. O=C(CC(=O)N(C(=O)/C=C\c1ccccc1)c1ccc(Cl)cc1)N1N=C(c2ccccc2)C(/N=N/c2cccc([N+](=O)[O-])c2)C1=O (stereo unspecified): NO
20. C[S+](C)C1(c2ccccc2)C(=O)c2ccccc2C1=O: NO
21. CC(C(=O)N1C(=O)N(C(=O)C(C)C(O)c2ccccc2)C(c2ccccc2)C1c1ccccc1)C(O)c1ccccc1 (stereo unspecified): NO
22. C=C(CN(C)C)C(=O)c1ccc(Oc2ccccc2)cc1: NO
23. CC1=C(C(=O)Nc2ccccc2C)C(/C=C/c2ccccc2)C(C(=O)Nc2ccccc2C)=C(C)N1: NO
24. Cc1nc2c(O)c3c(c(O)c2nc1C)C1C=CC3CC1: NO
25. O=C(NC(=O)c1cn(CCN(CCO)C(=O)NCCCCCCNC(=O)N(CCO)CCn2cc(C(=O)NC(=O)OCc3ccccc3)c(=O)[nH]c2=O)c(=O)[nH]c1=O)OCc1ccccc1: NO
26. COc1ccc(CC2c3cc(Oc4cc(CC5c6cc(OC)c(OC)cc6CCN5C)ccc4O)c(OC)cc3CCN2C)cc1 (stereo unspecified): NO
27. O=C(OC1C(Oc2ccccc2COC(=O)C2(O)C=CCCC2=O)OC(CO)C(O)C1O)c1ccccc1 (stereo unspecified): NO
28. C=C(CN(C)C)C(=O)c1ccccc1: NO
29. Cc1ccc(C(=O)OC(C)C)cc1/N=N/N(C)C: NO
30. CCN(CC)Cc1cc(Nc2c3ccccc3nc3c4ccccc4n(C)c23)cc(CN(CC)CC)c1O: NO
31. CCc1nc(Cl)c(Cl)c(Cl)n1: NO
32. CCCCCCCCCc1cc(=O)c2c(O)cccc2o1: NO
33. NS(=O)(=O)c1ccc(NCc2cnc3ccccc3n2)cc1: NO
34. c1ccc(C2(c3cc4ccccc4[nH]3)OCCO2)cc1: NO
35. CC(=O)OC/C=C/Cn1ncc(=O)[nH]c1=O: NO
36. CC(C)=C1CCC(CN2CCCC2)C1=O (stereo unspecified): NO
37. CCCCCCNC(=O)c1cc(NCc2cc(OC)ccc2OC)ccc1O: NO
38. O=C(N/C(=C\c1ccccc1O)c1nc2ccccc2[nH]1)c1ccccc1: NO
39. N/N=C1\C(OC(=O)Nc2cccc(Cl)c2)=Nc2ccccc21: NO
40. CNC(=O)N1N[C@H](c2ccccc2)[C@@H]1c1ccccc1.OB(O)O: NO
41. CN1CCc2c(sc3ncn(C)c(=N)c23)C1: NO
